- target_system: IGF 3P (Homo sapiens, UniProt P08069)
- Construct: human IGF1R kinase domain residues M954-C1367; made in house; host or cells: baculovirus expression (insect cells)
- assay_info: IGF1R kinase assay (LCCA), IGF 3P
- Format: biochemical
- assay_context: IGF1R kinase LCCA assay
// IC50 lookup, one value per entry

> print(dat)
                           structure.string                          target.system     result
1  Clc1cc(Nc2ncc(Br)c(Nc3cc(C4CC4)n[nH]3)n2)cc(Cl)c1Cl  IGF 3P (Homo sapiens, UniProt P08069)  > 5000 nM

What IC50 appears in the records for this compound with IGF 3P (Homo sapiens, UniProt P08069)? "Cc1cc(Nc2cc(C3CC3)n[nH]2)nc(Nc2cc(F)cc(F)c2)n1" > 5000 nM

What IC50 appears in the records for this compound with IGF 3P (Homo sapiens, UniProt P08069)? "Clc1cc(Cl)cc(Nc2ncc(Br)c(Nc3cc(C4CC4)n[nH]3)n2)c1" > 5000 nM

====

// IC50 lookup, one value per entry
- target_system: (Homo sapiens, UniProt P08069)
- Construct: human IGF1R kinase domain residues M954-C1367; made in house; host or cells: baculovirus expression (insect cells)
- Sequence (P08069 954-1367): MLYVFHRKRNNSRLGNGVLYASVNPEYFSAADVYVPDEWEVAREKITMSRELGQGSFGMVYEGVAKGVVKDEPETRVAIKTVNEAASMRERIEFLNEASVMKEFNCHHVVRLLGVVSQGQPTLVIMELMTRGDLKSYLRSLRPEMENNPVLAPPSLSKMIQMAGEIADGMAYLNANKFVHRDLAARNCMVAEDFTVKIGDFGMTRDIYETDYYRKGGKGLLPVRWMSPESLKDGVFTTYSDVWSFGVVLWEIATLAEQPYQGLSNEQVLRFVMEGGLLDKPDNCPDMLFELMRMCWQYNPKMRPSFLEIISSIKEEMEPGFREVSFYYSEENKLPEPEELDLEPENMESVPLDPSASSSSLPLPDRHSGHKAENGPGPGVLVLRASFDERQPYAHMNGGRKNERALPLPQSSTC
- assay_info: IGF1R kinase assay (LCCA), IGF 0P
- Assay type: biochemical
- assay_context: IGF1R kinase LCCA assay

Worked examples follow.
> print(dat)
                           structure.string                   target.system          result
1  Brc1ccc(Nc2ncc(Br)c(Nc3cc(C4CC4)n[nH]3)n2)c(Br)c1  (Homo sapiens, UniProt P08069)  500 to 5000 nM
2  Cc1cc(Nc2cc(C3CC3)n[nH]2)nc(Nc2ccc(CC#N)cc2)n1  (Homo sapiens, UniProt P08069)    50 to 500 nM

Switching to the query record.
What IC50 appears in the records for this compound with (Homo sapiens, UniProt P08069)? "CCN(CC)CCCNc1cc(Nc2cc(C3CC3)[nH]n2)nc(NCc2cc(-c3ccccc3)no2)n1" 50 to 500 nM

====

- target_system: (Homo sapiens, UniProt P08069)
- Construct: human IGF1R kinase domain residues M954-C1367; made in house; host or cells: baculovirus expression (insect cells)
- assay_info: IGF1R kinase assay (LCCA), IGF 0P
- Format: biochemical
- assay_context: IGF1R kinase LCCA assay
property: IC50

Worked examples follow.
> print(dat)
                                   compound                   target.system          result
1  CN1CCN(C(=O)c2cccc(Nc3ncc(Br)c(Nc4cc(C5CC5)n[nH]4)n3)c2)CC1  (Homo sapiens, UniProt P08069)     0.5 to 5 µM
2         Nc1ncc(Br)c(Nc2cc(C3CC3)[nH]n2)n1  (Homo sapiens, UniProt P08069)          > 5 µM
3  O=C(NCCN1CCOCC1)c1cc(Nc2cc(C3CC3)[nH]n2)nc(NCc2cc(-c3ccccc3)no2)n1  (Homo sapiens, UniProt P08069)  0.05 to 0.5 µM

Can you share its IC50? I mean this compound: "Cc1cc(Nc2cc(C3CC3)[nH]n2)nc(NCc2ccc(-c3ccc(Cl)cc3)s2)n1" 0.5 to 5 µM

Can you share its IC50? I mean this compound: "CC(C)c1cc(CNc2nc(Cl)cc(Nc3cc(C(C)C)[nH]n3)n2)on1" 0.5 to 5 µM

Can you share its IC50? I mean this compound: "CN1CCN(C(=O)CCc2cccc(Nc3ncc(Br)c(Nc4cc(C5CC5)n[nH]4)n3)c2)CC1" 0.5 to 5 µM

Can you share its IC50? I mean this compound: "Clc1ccccc1Nc1ncc(Br)c(Nc2cc(C3CC3)on2)n1" > 5 µM

Can you share its IC50? I mean this compound: Brc1cnc(NC2CCc3ccccc32)nc1Nc1cc(C2CC2)[nH]n1 (centres unmarked) 0.05 to 0.5 µM

====

- target_system: IGF 3P (Homo sapiens, UniProt P08069)
- Construct: human IGF1R kinase domain residues M954-C1367; made in house; host or cells: baculovirus expression (insect cells)
- assay_info: IGF1R kinase assay (LCCA), IGF 3P
- Type: biochemical
- assay_context: IGF1R kinase LCCA assay
property: IC50

Worked examples follow.
> print(dat)
                           structure.string  property          result
1  Cc1cc(Nc2cc(-c3ccco3)[nH]n2)nc(NCc2cc(-c3ccccc3)no2)n1      IC50     0.5 to 5 µM
2       Cc1cc(N2CCN(C)CC2)nc(N2CCN(C)CC2)n1      IC50          > 5 µM
3  CN1CCN(C(=O)c2ccc(Nc3ncc(Br)c(Nc4cc(C5CC5)n[nH]4)n3)cc2)CC1      IC50  0.05 to 0.5 µM
4  Brc1cnc(Nc2ccc(OCc3ccccc3)cc2)nc1Nc1cc(C2CC2)n[nH]1      IC50          > 5 µM
5  Cc1cc(C)cc(Nc2nc(C)cc(Nc3cc(C4CC4)n[nH]3)n2)c1      IC50          > 5 µM

Can you share its IC50? I mean this compound: "Brc1cnc(Nc2ccc3c(c2)CCC3)nc1Nc1cc(C2CC2)[nH]n1" 0.5 to 5 µM

Can you share its IC50? I mean this compound: "Clc1ccc(-c2cc(CNc3ncc(Br)c(Nc4cc(C5CC5)[nH]n4)n3)on2)cc1" > 5 µM

Can you share its IC50? I mean this compound: "FC(F)(F)c1ccc(-c2ncc(CNc3ncc(Br)c(Nc4cc(C5CC5)[nH]n4)n3)s2)cc1" > 5 µM

====

- target_system: (Homo sapiens, UniProt P08069)
- Construct: human IGF1R kinase domain residues M954-C1367; made in house; host or cells: baculovirus expression (insect cells)
- assay_info: IGF1R kinase assay (LCCA), IGF 0P
- Type: biochemical
- assay_context: IGF1R kinase LCCA assay
// IC50 lookup, one value per entry

> print(dat)
                           structure.string       result
1  Cc1cc(Nc2ccc3ccccc3c2)nc(NCc2cc(-c3ccccc3)no2)n1       > 5 µM
2  CC(C)(C)c1cc(Nc2nc(Nc3ccccc3)ncc2Br)n[nH]1  0.5 to 5 µM
3  Brc1cnc(Nc2cccc(Oc3ccccc3)c2)nc1Nc1cc(C2CC2)n[nH]1       > 5 µM

Switching to the query record.
Can you share its IC50? I mean this compound: "Cc1cc(Nc2cc(C3CC3)n[nH]2)nc(NCc2nc(C(=O)NCCc3ccccc3F)cs2)n1" 0.5 to 5 µM

====

- target_system: IGF 3P (Homo sapiens)
- Construct: human IGF1R kinase domain residues M954-C1367; made in house; host or cells: baculovirus expression (insect cells)
- assay_info: IGF1R kinase assay (LCCA), IGF 3P
- Type: biochemical
- assay_context: IGF1R kinase LCCA assay
property: IC50

Worked examples follow.
> print(dat)
                                   compound     result
1  O=C(c1ccccc1)c1ccccc1Nc1ncc(Br)c(Nc2cc(C3CC3)n[nH]2)n1 [Example 335]     > 5 µM
2  Cc1cc(Nc2cc(C3CC3)[nH]n2)nc(NCc2cc(-c3ccc(F)cc3)no2)n1 [Example 500]  < 0.05 µM
3  Brc1cnc(NCc2cc(-c3ccccc3)no2)nc1Nc1ccccc1 [Example 292]     > 5 µM

Can you share its IC50? I mean this compound: Brc1ccccc1Nc1ncc(Br)c(Nc2cc(C3CC3)n[nH]2)n1 [Example 83] 0.05 to 0.5 µM

Can you share its IC50? I mean this compound: FC(F)(F)c1cc(Nc2ncc(Br)c(Nc3cc(C4CC4)n[nH]3)n2)cc(C(F)(F)F)c1 [Example 304] > 5 µM

Can you share its IC50? I mean this compound: O=C(Nc1ncc(Br)c(Nc2cc(C3CC3)[nH]n2)n1)c1ccccc1Cl [Example 279] > 5 µM

Can you share its IC50? I mean this compound: Clc1ccccc1Nc1ncc(Br)c(Nc2cc[nH]n2)n1 [Example 192] 0.5 to 5 µM

Can you share its IC50? I mean this compound: CN(C)c1ccc(CNc2ncc(Br)c(Nc3cc(C4CC4)n[nH]3)n2)cc1 [Example 193] 0.5 to 5 µM

====

// pIC50 lookup, one value per entry
- target_system: IGF 3P (Homo sapiens, UniProt P08069)
- Construct: human IGF1R kinase domain residues M954-C1367; made in house; host or cells: baculovirus expression (insect cells)
- assay_info: IGF1R kinase assay (LCCA), IGF 3P
- Assay type: biochemical
- assay_context: IGF1R kinase LCCA assay
pIC50: −log10 of the molar value.

Worked examples follow.
> print(dat)
                                   molecule        result
1  Brc1cnc(NCc2cc(-c3ccccc3)no2)nc1Nc1cc(C2CCCC2)n[nH]1 [Example 189]  5.30 to 6.30
2  CC(=O)N1CCC(n2cc(-c3cccc(OCc4ccccc4)c3)c3c(N)ncnc32)CC1 [Example 349]        < 5.30

What pIC50 appears in the records for this molecule with IGF 3P (Homo sapiens, UniProt P08069)? CC(C)c1cc(CNc2ncc(Br)c(Nc3cc(C4CC4)[nH]n3)n2)on1 [Example 65] > 7.30

Where do the numbers come from? From patent US8211929B2.
